Biological target: UniProt Q9NWZ3
Assay: IRAK4 Inhibition Assay
Type: biochemical
Settings: IRAK4 Inhibition Assay; ATP 500 μM; read-out: IRAK4 IC50
Quick reference: log10 IC50 of the listed items.
TEST READOUT: log10 IC50 (log10 of the value in nM)

compound=CC(C)Nc1cc(-n2ncc3cc(C#N)cnc32)ncc1C(=O)NCCC1CCN(C)CC1 test_system="UniProt Q9NWZ3" test_readout="log10 IC50" value=0.41
compound=C[C@@H](CO)Nc1cc(-n2ccc3cc(C#N)cnc32)ncc1C(=O)NC[C@@H](F)C(C)(C)O test_system="UniProt Q9NWZ3" test_readout="log10 IC50" value=0.18
compound=CCn1cc(Nc2cc(-n3ccc4cc(C#N)cnc43)ncc2C(=O)NC[C@@H](F)C(C)(C)O)cn1 test_system="UniProt Q9NWZ3" test_readout="log10 IC50" value=0.08
compound=CC(C)(O)[C@H](F)CNC(=O)c1cnc(-n2ccc3cc(C#N)cnc32)cc1Nc1ccc2ncsc2c1 test_system="UniProt Q9NWZ3" test_readout="log10 IC50" value=0.23
compound=CC(C)(O)[C@H](F)CNC(=O)c1cnc(-n2ncc3cc(Cl)cnc32)cc1Nc1cnn(CCC#N)c1 test_system="UniProt Q9NWZ3" test_readout="log10 IC50" value=0.43
compound=CC(C)(O)[C@H](F)CNC(=O)c1cnc(-n2ncc3cc(Cl)cnc32)cc1Nc1cnn(CC(F)(F)F)c1 test_system="UniProt Q9NWZ3" test_readout="log10 IC50" value=0.28
compound=CC(C)Nc1cc(-n2ncc3cc(C#N)cnc32)ncc1C(=O)N[C@@H]1CCCN(S(C)(=O)=O)C1 test_system="UniProt Q9NWZ3" test_readout="log10 IC50" value=1.20
compound=CC(C)(O)[C@H](F)CNC(=O)c1cnc(-n2ccc3cc(C#N)cnc32)cc1NC1CC1 test_system="UniProt Q9NWZ3" test_readout="log10 IC50" value=0.20
compound=CC(C)Nc1cc(-n2ccc(-c3ccnnc3)n2)ncc1C(=O)NC[C@@H](F)C(C)(C)O test_system="UniProt Q9NWZ3" test_readout="log10 IC50" value=1.12
compound="CC(C)(O)[C@H](F)CNC(=O)c1cnc(-n2ccc3cc(C#N)cnc32)cc1NC(CO)CF (stereo partly drawn)" test_system="UniProt Q9NWZ3" test_readout="log10 IC50" value=0.83
compound=[2H]C([2H])([2H])NC(=O)[C@H]1CC[C@H](NC(=O)c2cnc(-n3ncc4cc(C#N)cnc43)cc2NC(C)C)CC1 test_system="UniProt Q9NWZ3" test_readout="log10 IC50" value=0.58
compound=CC(C)(O)[C@H](F)CNC(=O)c1cnc(-n2ccc3cc(C#N)cnc32)cc1Nc1ccc(-n2cccn2)cc1 test_system="UniProt Q9NWZ3" test_readout="log10 IC50" value=0.23
compound=CC(C)Nc1cc(-n2ncc3cc(C#N)cnc32)ncc1C(=O)NCC(F)=C1CCOCC1 test_system="UniProt Q9NWZ3" test_readout="log10 IC50" value=1.13
compound=CCNc1cc(-n2ncc3cc(C#N)cnc32)ncc1C(=O)NC[C@@H](F)C(C)(C)O test_system="UniProt Q9NWZ3" test_readout="log10 IC50" value=0.81
compound=CCCNC(=O)c1cnc(-n2ncc3cc(C#N)cnc32)cc1Nc1cnn(CC(F)F)c1 test_system="UniProt Q9NWZ3" test_readout="log10 IC50" value=0.60

---

Biological target: IRAK4 (Homo sapiens (Human), UniProt Q9NWZ3)
Sequence (Q9NWZ3 whole entry, species assumed): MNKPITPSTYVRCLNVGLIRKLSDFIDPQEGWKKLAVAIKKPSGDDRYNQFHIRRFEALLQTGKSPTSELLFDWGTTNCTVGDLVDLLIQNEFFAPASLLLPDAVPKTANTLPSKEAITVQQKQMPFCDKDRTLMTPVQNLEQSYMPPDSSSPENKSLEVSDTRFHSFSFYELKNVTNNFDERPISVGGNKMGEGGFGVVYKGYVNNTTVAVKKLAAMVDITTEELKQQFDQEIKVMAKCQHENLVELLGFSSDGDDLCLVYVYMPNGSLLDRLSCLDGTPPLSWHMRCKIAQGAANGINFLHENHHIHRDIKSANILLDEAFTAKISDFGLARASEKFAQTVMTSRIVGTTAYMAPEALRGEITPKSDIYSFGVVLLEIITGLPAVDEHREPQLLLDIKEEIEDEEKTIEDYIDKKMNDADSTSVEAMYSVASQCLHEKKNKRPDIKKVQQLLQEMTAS
Assay: IRAK4 Inhibition Assay
Type: biochemical
Conditions: IRAK4 Inhibition Assay; ATP 500 μM; hydrochloride; read-out: IRAK4 IC50
Where a name gives a salt, the structure may show the parent alone.
TEST READOUT: IC50 (nM)

compound="CC(C)Nc1cc(-n2ncc3cc(C#N)cnc32)ncc1C(=O)NC[C@@H](F)C(C)(C)O [Example 192, hydrochloride]" test_readout=IC50 value=2.6

---

Target: UniProtKB Q9NWZ3
Experiment: IRAK4 Inhibition Assay
Assay type: biochemical
Conditions: ATP 500 μM; IRAK4 0.6 nM; read-out: IRAK4 IC50
pIC50: −log10 of the molar value.
TEST READOUT: pIC50

molecule=C[C@H](F)CNc1cc(-n2ncc3cc(C#N)cnc32)ncc1C(=O)NC[C@@H](F)C(C)(C)O test_system="UniProtKB Q9NWZ3" value=8.39
molecule=CS(=O)(=O)NCCNC(=O)c1cnc(-n2ccc3cc(C#N)cnc32)cc1NC1CCOCC1 test_system="UniProtKB Q9NWZ3" value=8.24
molecule=CC(C)(F)[C@H](F)CNC(=O)c1cnc(-n2cnc3cc(Cl)cnc32)cc1Nc1cnn(CC(F)F)c1 test_system="UniProtKB Q9NWZ3" value=8.60
molecule=CC(C)(O)[C@H](F)CNC(=O)c1cnc(-n2ccc3cc(C#N)cnc32)cc1N[C@H]1CC[C@H](C(N)=O)CC1 test_system="UniProtKB Q9NWZ3" value=8.92
molecule="CC(C)CC(O)[C@H](C)Nc1cc(-n2ccc3cc(C#N)cnc32)ncc1C(=O)NC[C@@H](F)C(C)(C)O (single isomer, unassigned)" test_system="UniProtKB Q9NWZ3" value=7.96
molecule=CC(C)(O)[C@H](F)CNC(=O)c1cnc(-n2ccc3cc(C#N)cnc32)cc1Nc1ccc2ncoc2c1 test_system="UniProtKB Q9NWZ3" value=8.72
molecule=CCOC(C)(C)[C@H](F)CNC(=O)c1cnc(-n2ccc3cc(C#N)cnc32)cc1NC(C)C test_system="UniProtKB Q9NWZ3" value=8.62
molecule=CCN(CC)C(=O)NCc1cnc2c(ccn2-c2cc(NC(C)C)c(C(=O)NC[C@@H](F)C(C)(C)O)cn2)c1 test_system="UniProtKB Q9NWZ3" value=7.88
molecule=N#Cc1cc2cnn(-c3cc(NC4COC4)c(C(=O)NCCC4CC4)cn3)c2nc1N test_system="UniProtKB Q9NWZ3" value=8.21
molecule=CC(C)(O)[C@H](F)CNC(=O)c1cnc(-n2ncc3cc(F)cnc32)cc1NC1COC1 test_system="UniProtKB Q9NWZ3" value=7.99
molecule=CC(C)(O)/C=C/Nc1cc(-n2ccc3cc(C#N)cnc32)ncc1C(=O)NC[C@@H](F)C(C)(C)O test_system="UniProtKB Q9NWZ3" value=8.32
molecule=CC(C)(F)[C@H](F)CNC(=O)c1cnc(-n2ncc3cc(C#N)cnc32)cc1Nc1cnn(CC(F)F)c1 test_system="UniProtKB Q9NWZ3" value=8.66
molecule=C[C@H](Nc1cc(-n2ccc3cc(C#N)cnc32)ncc1C(=O)NC[C@@H](F)C(C)(C)O)C1CC1 test_system="UniProtKB Q9NWZ3" value=8.36
molecule=CC(C)(O)[C@H](F)CNC(=O)c1cnc(-n2ncc3cc(C#N)cnc32)cc1NCc1cocn1 test_system="UniProtKB Q9NWZ3" value=7.82
molecule="CC(C)(O)[C@H](F)CNC(=O)c1cnc(-n2ccc3cc(C#N)cnc32)cc1NC1COCC1(F)F (single isomer, unassigned) [Example 485]" test_system="UniProtKB Q9NWZ3" value=8.06
molecule=CC(C)(O)[C@H](F)CNC(=O)c1cnc(-n2ncc3cc(Cl)cnc32)cc1NC1COC1 test_system="UniProtKB Q9NWZ3" value=7.90
molecule=CC(C)(O)[C@H](F)CNC(=O)c1cnc(-n2ncc3cc(C#N)cnc32)cc1Nc1cccc(C#N)c1 test_system="UniProtKB Q9NWZ3" value=8.59
molecule=Cc1cc(Nc2cc(-n3ncc4cc(C#N)cnc43)ncc2C(=O)NC[C@@H](F)C(C)(C)O)n(C)n1 test_system="UniProtKB Q9NWZ3" value=8.15
molecule=CC(C)(O)[C@H](F)CNC(=O)c1cnc(N2CCc3cc(C#N)cnc32)cc1NC1CC1 test_system="UniProtKB Q9NWZ3" value=7.96
molecule=CC(C)[C@@H](CO)Nc1cc(-n2ncc3cc(C#N)cnc32)ncc1C(=O)NC[C@@H](F)C(C)(C)O test_system="UniProtKB Q9NWZ3" value=7.89
molecule="CC(O)CCNc1cc(-n2ccc3cc(C#N)cnc32)ncc1C(=O)NC[C@@H](F)C(C)(C)O (single isomer, unassigned) [Example 461]" test_system="UniProtKB Q9NWZ3" value=8.60
molecule=CC(C)(O)[C@H](F)CNC(=O)c1cnc(-n2ncc3cc(C#N)cnc32)cc1N[C@H]1CC[C@H](NC(=O)C(F)F)CC1 test_system="UniProtKB Q9NWZ3" value=8.48
molecule=CC(C)Nc1cc(-n2ccc3cc(CNC(=O)CC4CCCC4)cnc32)ncc1C(=O)NC[C@@H](F)C(C)(C)O test_system="UniProtKB Q9NWZ3" value=8.37
molecule=CC(C)(O)[C@H](F)CNC(=O)c1cnc(-n2ccc3cc(C#N)cnc32)cc1Nc1cccc(C#N)c1F test_system="UniProtKB Q9NWZ3" value=8.68
molecule=CCCCNC(=O)c1cnc(-n2ncc3cc(C#N)cnc32)cc1NC1COC1 test_system="UniProtKB Q9NWZ3" value=8.11
molecule="CC(O)CCNc1cc(-n2ccc3cc(C#N)cnc32)ncc1C(=O)NC[C@@H](F)C(C)(C)O (single isomer, unassigned) [Example 462]" test_system="UniProtKB Q9NWZ3" value=8.54
molecule=CC(C)Nc1cc(-n2ccc3cc(CNC(=O)C4CC4)cnc32)ncc1C(=O)NC[C@@H](F)C(C)(C)O test_system="UniProtKB Q9NWZ3" value=7.87
molecule=CC(C)(O)[C@H](F)CNC(=O)c1cnc(-n2ncc3cc(C#N)cnc32)cc1NCC1CC1 test_system="UniProtKB Q9NWZ3" value=8.12

Recorded values, source patent US9169252B2.
